Test system: Hep 3B2
testSummary: Proliferative activity against human Hep3B cells assessed as cell viability at 1 uM after 4 days by cell counting method relative to control
Assay type: functional
assayContext: 96 h, read-out: Activity
Attribute: viability at 1 µM
measurementName: viability at 1 µM (%)

compound=C/C(=C\Cc1c(O)ccc(C(=O)/C=C/c2ccc(O)cc2)c1O)CCC(=O)O measurementname="viability at 1 µM" valueunit=% valuereported=100
compound="CC(C)=CCCC(C)(O)C1Cc2c(O)ccc(C(=O)/C=C/c3ccc(O)cc3)c2O1 (centres undefined)" measurementname="viability at 1 µM" valueunit=% valuereported=102
compound="O=C1CC(c2ccc(O)cc2)Oc2cc(O)ccc21 (racemic)" measurementname="viability at 1 µM" valueunit=% valuereported=104
compound=CC(C)C(=O)O[C@@H]1Cc2c(ccc3ccc(=O)oc23)OC1(C)C measurementname="viability at 1 µM" valueunit=% valuereported=101
compound="O=C(CCc1ccc(O)cc1)c1ccc(O)cc1O [DAVIDIGENIN]" measurementname="viability at 1 µM" valueunit=% valuereported=106
compound=C/C=C(/C)C(=O)O[C@@H]1c2c(ccc3ccc(=O)oc23)OC(C)(C)[C@@H]1O[C@@H]1O[C@H](CO)[C@@H](O)[C@H](O)[C@H]1O measurementname="viability at 1 µM" valueunit=% valuereported=102
compound="C=C(C)[C@H]1CC[C@](C)([C@@H](O)Cc2c(O)ccc(C(=O)/C=C/c3ccc(O)cc3)c2O)O1 (racemic)" measurementname="viability at 1 µM" valueunit=% valuereported=101
compound="O=C(/C=C/c1ccc(O)cc1)c1ccc(O)cc1O [ISOLIQUIRITIGENIN]" measurementname="viability at 1 µM" valueunit=% valuereported=103
compound=CO[C@H]1c2c(ccc3ccc(=O)oc23)O[C@@H]1C(C)(C)O measurementname="viability at 1 µM" valueunit=% valuereported=118
